Cited source: patent US8765775B2

Molecular target: EphB4 (Homo sapiens)
Sequence (P54760 16-987): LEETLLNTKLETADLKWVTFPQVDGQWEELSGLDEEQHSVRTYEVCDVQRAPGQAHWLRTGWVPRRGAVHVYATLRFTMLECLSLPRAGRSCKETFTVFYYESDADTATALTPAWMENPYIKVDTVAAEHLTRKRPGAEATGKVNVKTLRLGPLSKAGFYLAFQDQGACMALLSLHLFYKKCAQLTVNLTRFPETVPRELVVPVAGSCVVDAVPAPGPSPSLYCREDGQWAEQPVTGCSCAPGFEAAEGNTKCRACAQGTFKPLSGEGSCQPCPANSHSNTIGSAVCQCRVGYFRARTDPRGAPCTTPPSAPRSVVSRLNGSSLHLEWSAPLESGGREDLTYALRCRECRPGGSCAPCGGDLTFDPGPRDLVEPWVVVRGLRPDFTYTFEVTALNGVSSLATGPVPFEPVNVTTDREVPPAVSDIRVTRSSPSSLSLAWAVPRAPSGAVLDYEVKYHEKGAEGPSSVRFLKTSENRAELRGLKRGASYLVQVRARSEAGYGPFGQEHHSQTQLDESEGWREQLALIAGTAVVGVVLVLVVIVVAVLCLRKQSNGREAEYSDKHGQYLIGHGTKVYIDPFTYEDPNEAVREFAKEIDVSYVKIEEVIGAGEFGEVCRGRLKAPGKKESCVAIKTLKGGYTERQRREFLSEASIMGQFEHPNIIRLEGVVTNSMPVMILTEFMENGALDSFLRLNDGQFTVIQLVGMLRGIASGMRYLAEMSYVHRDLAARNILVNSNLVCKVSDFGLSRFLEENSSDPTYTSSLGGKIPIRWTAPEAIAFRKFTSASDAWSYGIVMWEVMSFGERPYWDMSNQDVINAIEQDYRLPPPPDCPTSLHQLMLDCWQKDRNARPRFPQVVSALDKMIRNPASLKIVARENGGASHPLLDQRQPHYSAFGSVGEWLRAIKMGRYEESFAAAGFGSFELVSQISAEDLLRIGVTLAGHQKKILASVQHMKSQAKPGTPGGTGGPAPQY
Experiment: IC50 and % inhibition (Table 3)
Type: biochemical
Details: C = 10 μM; read-out: % inhibition at indicated concentration C
assay.metric: inhibition at 10 µM (%)

Reference set, count: 3
Exercise: Which inhibition at 10 µM value belongs to "COCCCn1c(-c2ccccc2)cn2c3c(=O)[nH]c(=O)n(C)c3nc12" ?
Solution: 49

Exercise: Recorded inhibition at 10 µM for "COc1ccc(OC)c(-n2c(-c3ccc(F)cc3)cn3c4c(=O)[nH]c(=O)n(C)c4nc23)c1" , please?
Solution: 72

Exercise: Recorded inhibition at 10 µM for "Cn1c(=O)[nH]c(=O)c2c1nc1n(CCCCO)c(-c3ccccc3)cn21" , please?
Solution: 72

I. CCCn1c(-c2ccccc2)cn2c3c(=O)[nH]c(=O)n(C)c3nc12
II. COc1ccccc1-n1c(-c2ccccc2)cn2c3c(=O)[nH]c(=O)n(Cc4ccccc4)c3nc12
Exercise: Kindly identify the item with the lower inhibition at 10 µM figure among these two: I and II State your choice using its label.
Solution: II

====

Biological target: EphB4 (Homo sapiens)
Assay: Panvera Z'Lyte FRET-based enzymatic assay
Details: read-out: Enzymatic assays IC50 Z′Lyte; FRET-based; 10 μM ATP, 1% DMSO, room temperature 1 hour
assay.metric: IC50 (µM)
Report the value in µM with no unit label.

Exercise: Value wanted: IC50 (EphB4 (Homo sapiens)) of entry CC1(C)Cc2c(sc(NC(=O)Nc3ccccc3)c2C(N)=O)CO1 [Compound 9, reference compound]
Solution: 76

====

assay.metric: melting point

Would you please look over these solved cases?
Exercise: Fill in the blank: the reported melting point of "COc1ccccc1-n1c(-c2ccc(F)cc2)cn2c3c(=O)[nH]c(=O)n(Cc4ccccc4)c3nc12" is ____.
Solution: 251 to 253 °C

Exercise: Would you kindly share the measured melting point for "CCCCn1c(-c2ccccc2)c(Br)n2c3c(=O)[nH]c(=O)n(C)c3nc12" ?
Solution: 302 to 304 °C

Exercise: Find the recorded melting point belonging to "Cn1c(-c2ccccc2)cn2c3c(=O)[nH]c(=O)n(Cc4ccccc4)c3nc12" and report it.
Solution: 306 to 308 °C

Exercise: I would be grateful if you could share the reported melting point for "O=c1[nH]c(=O)n(Cc2ccccc2)c2nc3[nH]c(-c4ccccc4)cn3c12" .
Solution: 393 to 395 °C

Others:
Exercise: // lookup melting point for "COc1ccccc1-n1c(-c2ccc([N+](=O)[O-])cc2)cn2c3c(=O)[nH]c(=O)n(C)c3nc12"
Solution: 323 to 325 °C

Exercise: Quick one: melting point of "Cn1c(=O)[nH]c(=O)c2c1nc1n(CCCCO)c(-c3ccc(NCCCCO)cc3)cn21" ?
Solution: 205 to 207 °C

Exercise: Quick one: melting point for "COc1ccccc1-n1c(-c2ccc(C#N)cc2)cn2c3c(=O)[nH]c(=O)n(C)c3nc12" ?
Solution: 303 to 305 °C
